- Tested on: Deinococcus radiodurans
- experimentalProtocol: Activity of Deinococcus radiodurans homoisocitrate dehydrogenase
Field: label. Allowed values: Yes (kcat < 30 s⁻¹) or No (kcat >= 30 s⁻¹).

Does this molecule meet the criterion kcat < 30 s⁻¹? CC[C@H](C(=O)O)[C@@H](O)C(=O)O
No

And for O=C(O)[C@@H](CCCCO)[C@@H](O)C(=O)O ?
Yes

// repeat for C=CCCC[C@H](C(=O)O)[C@@H](O)C(=O)O and report
Yes

Next record, please: O=C(O)CCCC[C@H](C(=O)O)[C@@H](O)C(=O)O
No

Thanks! And O=C(O)[C@@H](CCCO)[C@@H](O)C(=O)O ?
Yes

Param item: CCC[C@H](C(=O)O)[C@@H](O)C(=O)O
No

Again, but for C=C[C@H](C(=O)O)[C@@H](O)C(=O)O
Yes

Field entry: O=C(O)CCC[C@H](C(=O)O)[C@@H](O)C(=O)O
No

Further, for C[C@H](C(=O)O)[C@@H](O)C(=O)O ?
Yes

One more molecule: O=C(O)[C@@H](CCO)[C@@H](O)C(=O)O
Yes

Do the same for C=CC[C@H](C(=O)O)[C@@H](O)C(=O)O please
No

Another molecule to check: CCCCC[C@H](C(=O)O)[C@@H](O)C(=O)O
Yes

---

- Test system: Deinococcus radiodurans
- experimentalProtocol: Ratio of kcat/km of Deinococcus radiodurans homoisocitrate dehydrogenase
Strictly below 5000 M⁻¹ s⁻¹ in kcat/Km: Yes. Otherwise: No.

Regarding O=C(O)CCCC[C@H](C(=O)O)[C@@H](O)C(=O)O , kindly confirm whether its kcat/Km is beneath 5000 M⁻¹ s⁻¹.
No

Also O=C(O)CCC[C@H](C(=O)O)[C@@H](O)C(=O)O , if possible.
No

Input C[C@H](C(=O)O)[C@@H](O)C(=O)O
No

Another: CCCCC[C@H](C(=O)O)[C@@H](O)C(=O)O
Yes

And O=C(O)[C@@H](CCO)[C@@H](O)C(=O)O ?
No
